Reference source for all entries: ChEMBL document CHEMBL6087476

assay: Hemolytic activity in healthy human RBC assessed as hemolysis incubated for 1 hr by microplate reader; format: toxicity, cell-based; conditions: erythrocyte
Kindly state HC10 for each of the entries shown.
Answers are plain numbers, in µM.

- substance-smiles: "CCCCCCCCCCCC(=O)NCCCC[C@H](N)C(=O)NCC(=O)NCC(=O)NCC(=O)N[C@H](CCCNC(=N)N)C(=O)N[C@@H](CCCNC(=N)N)C(=O)N[C@@H](CCCNC(=N)N)C(=O)N1CCC[C@H]1C(=O)N[C@@H](CS)C(=O)O"
  readout-label: "HC10"
  assay-result: 64
- substance-smiles: "CCCCCCCCCC(=O)NCCCC[C@H](N)C(=O)NCC(=O)NCC(=O)NCC(=O)N[C@H](CCCNC(=N)N)C(=O)N[C@@H](CCCNC(=N)N)C(=O)N[C@@H](CCCNC(=N)N)C(=O)N1CCC[C@H]1C(=O)N[C@@H](CS)C(=O)O"
  readout-label: "HC10"
  assay-result: 256
- substance-smiles: "CCCCCCCCCCCC(=O)NCCCC[C@H](NC(=O)[C@@H](N)CS)C(=O)NCC(=O)NCC(=O)NCC(=O)N[C@H](CCCNC(=N)N)C(=O)N[C@@H](CCCNC(=N)N)C(=O)N[C@@H](CCCNC(=N)N)C(=O)N1CCC[C@H]1C(=O)O"
  readout-label: "HC10"
  assay-result: 128
- substance-smiles: "CCCCCCCCCC(=O)NCCCC[C@H](NC(=O)[C@@H](N)CSSC[C@H](N)C(=O)N[C@@H](CCCCNC(=O)CCCCCCCCC)C(=O)NCC(=O)NCC(=O)NCC(=O)N[C@H](CCCNC(=N)N)C(=O)N[C@@H](CCCNC(=N)N)C(=O)N[C@@H](CCCNC(=N)N)C(=O)N1CCC[C@H]1C(=O)O)C(=O)NCC(=O)NCC(=O)NCC(=O)N[C@H](CCCNC(=N)N)C(=O)N[C@@H](CCCNC(=N)N)C(=O)N[C@@H](CCCNC(=N)N)C(=O)N1CCC[C@H]1C(=O)O"
  readout-label: "HC10"
  assay-result: 256

Return reported HC10 values for all items listed beneath this line.
1. CCCCCCCCCC(=O)NCCCC[C@H](NC(=O)[C@@H](N)CS)C(=O)NCC(=O)NCC(=O)NCC(=O)N[C@H](CCCNC(=N)N)C(=O)N[C@@H](CCCNC(=N)N)C(=O)N[C@@H](CCCNC(=N)N)C(=O)N1CCC[C@H]1C(=O)O
2. CCCCCCCCCCCC(=O)NCCCC[C@H](N)C(=O)NCC(=O)NCC(=O)NCC(=O)N[C@H](CCCNC(=N)N)C(=O)N[C@@H](CCCNC(=N)N)C(=O)N[C@@H](CCCNC(=N)N)C(=O)N1CCC[C@H]1C(=O)N[C@@H](CSSC[C@H](NC(=O)[C@@H]1CCCN1C(=O)[C@H](CCCNC(=N)N)NC(=O)[C@H](CCCNC(=N)N)NC(=O)[C@@H](CCCNC(=N)N)NC(=O)CNC(=O)CNC(=O)CNC(=O)[C@@H](N)CCCCNC(=O)CCCCCCCCCCC)C(=O)O)C(=O)O
3. CCCCCCCC(=O)NCCCC[C@H](N)C(=O)NCC(=O)NCC(=O)NCC(=O)N[C@H](CCCNC(=N)N)C(=O)N[C@@H](CCCNC(=N)N)C(=O)N[C@@H](CCCNC(=N)N)C(=O)N1CCC[C@H]1C(=O)N[C@@H](CSSC[C@H](NC(=O)[C@@H]1CCCN1C(=O)[C@H](CCCNC(=N)N)NC(=O)[C@H](CCCNC(=N)N)NC(=O)[C@@H](CCCNC(=N)N)NC(=O)CNC(=O)CNC(=O)CNC(=O)[C@@H](N)CCCCNC(=O)CCCCCCC)C(=O)O)C(=O)O
4. CCCCCCCCCCCC(=O)NCCCC[C@H](NC(=O)[C@@H](N)CSSC[C@H](N)C(=O)N[C@@H](CCCCNC(=O)CCCCCCCCCCC)C(=O)NCC(=O)NCC(=O)NCC(=O)N[C@H](CCCNC(=N)N)C(=O)N[C@@H](CCCNC(=N)N)C(=O)N[C@@H](CCCNC(=N)N)C(=O)N1CCC[C@H]1C(=O)O)C(=O)NCC(=O)NCC(=O)NCC(=O)N[C@H](CCCNC(=N)N)C(=O)N[C@@H](CCCNC(=N)N)C(=O)N[C@@H](CCCNC(=N)N)C(=O)N1CCC[C@H]1C(=O)O
5. CCCCCCCC(=O)NCCCC[C@H](N)C(=O)NCC(=O)NCC(=O)NCC(=O)N[C@H](CCCNC(=N)N)C(=O)N[C@@H](CCCNC(=N)N)C(=O)N[C@@H](CCCNC(=N)N)C(=O)N1CCC[C@H]1C(=O)N[C@@H](CS)C(=O)O
6. CCCCCCCC(=O)NCCCC[C@H](NC(=O)[C@@H](N)CSSC[C@H](N)C(=O)N[C@@H](CCCCNC(=O)CCCCCCC)C(=O)NCC(=O)NCC(=O)NCC(=O)N[C@H](CCCNC(=N)N)C(=O)N[C@@H](CCCNC(=N)N)C(=O)N[C@@H](CCCNC(=N)N)C(=O)N1CCC[C@H]1C(=O)O)C(=O)NCC(=O)NCC(=O)NCC(=O)N[C@H](CCCNC(=N)N)C(=O)N[C@@H](CCCNC(=N)N)C(=O)N[C@@H](CCCNC(=N)N)C(=O)N1CCC[C@H]1C(=O)O
7. CCCCCCCCCC(=O)NCCCC[C@H](N)C(=O)NCC(=O)NCC(=O)NCC(=O)N[C@H](CCCNC(=N)N)C(=O)N[C@@H](CCCNC(=N)N)C(=O)N[C@@H](CCCNC(=N)N)C(=O)N1CCC[C@H]1C(=O)N[C@@H](CSSC[C@H](NC(=O)[C@@H]1CCCN1C(=O)[C@H](CCCNC(=N)N)NC(=O)[C@H](CCCNC(=N)N)NC(=O)[C@@H](CCCNC(=N)N)NC(=O)CNC(=O)CNC(=O)CNC(=O)[C@@H](N)CCCCNC(=O)CCCCCCCCC)C(=O)O)C(=O)O

Reply:
256
64
256
128
256
256
256

Task item: Request the reported HC10 associated with `CCCCCCCC(=O)NCCCC[C@H](NC(=O)[C@@H](N)CS)C(=O)NCC(=O)NCC(=O)NCC(=O)N[C@H](CCCNC(=N)N)C(=O)N[C@@H](CCCNC(=N)N)C(=O)N[C@@H](CCCNC(=N)N)C(=O)N1CCC[C@H]1C(=O)O`
Reply: 256

----------
Kindly state MIC for each of the entries shown.
tested on: Escherichia coli; test: Antimicrobial activity against Escherichia coli K99 assessed as increase in absorbance incubated for 20 to 22 hrs; assay type: functional; conditions: time 20-22 hrs
Answers are plain numbers, in µM.

Return reported MIC values for all items listed beneath this line.
1. CCCCCCCCCCCC(=O)NCCCC[C@H](NC(=O)[C@@H](N)CSSC[C@H](N)C(=O)N[C@@H](CCCCNC(=O)CCCCCCCCCCC)C(=O)NCC(=O)NCC(=O)NCC(=O)N[C@H](CCCNC(=N)N)C(=O)N[C@@H](CCCNC(=N)N)C(=O)N[C@@H](CCCNC(=N)N)C(=O)N1CCC[C@H]1C(=O)O)C(=O)NCC(=O)NCC(=O)NCC(=O)N[C@H](CCCNC(=N)N)C(=O)N[C@@H](CCCNC(=N)N)C(=O)N[C@@H](CCCNC(=N)N)C(=O)N1CCC[C@H]1C(=O)O
2. CCCCCCCCCCCC(=O)NCCCC[C@H](N)C(=O)NCC(=O)NCC(=O)NCC(=O)N[C@H](CCCNC(=N)N)C(=O)N[C@@H](CCCNC(=N)N)C(=O)N[C@@H](CCCNC(=N)N)C(=O)N1CCC[C@H]1C(=O)N[C@@H](CSSC[C@H](NC(=O)[C@@H]1CCCN1C(=O)[C@H](CCCNC(=N)N)NC(=O)[C@H](CCCNC(=N)N)NC(=O)[C@@H](CCCNC(=N)N)NC(=O)CNC(=O)CNC(=O)CNC(=O)[C@@H](N)CCCCNC(=O)CCCCCCCCCCC)C(=O)O)C(=O)O

Reply:
1: 32; 2: 32

----------
test system: Escherichia coli; assay: Antimicrobial activity against Escherichia coli K99 assessed as increase in absorbance incubated for 20 to 22 hrs; type: functional; settings: time 20-22 hrs
readout-label: MIC (µM)
One number for each entry, in µM.

- substance-smiles: "CCCCCCCC(=O)NCCCC[C@H](N)C(=O)NCC(=O)NCC(=O)NCC(=O)N[C@H](CCCNC(=N)N)C(=O)N[C@@H](CCCNC(=N)N)C(=O)N[C@@H](CCCNC(=N)N)C(=O)N1CCC[C@H]1C(=O)N[C@@H](CSSC[C@H](NC(=O)[C@@H]1CCCN1C(=O)[C@H](CCCNC(=N)N)NC(=O)[C@H](CCCNC(=N)N)NC(=O)[C@@H](CCCNC(=N)N)NC(=O)CNC(=O)CNC(=O)CNC(=O)[C@@H](N)CCCCNC(=O)CCCCCCC)C(=O)O)C(=O)O"
  readout-label: "MIC"
  assay-result: 4
- substance-smiles: "CCCCCCCC(=O)NCCCC[C@H](NC(=O)[C@@H](N)CS)C(=O)NCC(=O)NCC(=O)NCC(=O)N[C@H](CCCNC(=N)N)C(=O)N[C@@H](CCCNC(=N)N)C(=O)N[C@@H](CCCNC(=N)N)C(=O)N1CCC[C@H]1C(=O)O"
  readout-label: "MIC"
  assay-result: 128

Could you now look at the following molecule, please?
Task item: Request the reported MIC associated with `CCCCCCCCCCCC(=O)NCCCC[C@H](N)C(=O)NCC(=O)NCC(=O)NCC(=O)N[C@H](CCCNC(=N)N)C(=O)N[C@@H](CCCNC(=N)N)C(=O)N[C@@H](CCCNC(=N)N)C(=O)N1CCC[C@H]1C(=O)N[C@@H](CS)C(=O)O`
Reply: 32
